FYI, the data here is from the supplement of paper PMC3545927.

# targetDesc: furin, P09958;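 also: purified furin at 1:10 enzyme:substrate in 50 mM HEPES pH 7.5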
# Sequence (P09958 whole entry): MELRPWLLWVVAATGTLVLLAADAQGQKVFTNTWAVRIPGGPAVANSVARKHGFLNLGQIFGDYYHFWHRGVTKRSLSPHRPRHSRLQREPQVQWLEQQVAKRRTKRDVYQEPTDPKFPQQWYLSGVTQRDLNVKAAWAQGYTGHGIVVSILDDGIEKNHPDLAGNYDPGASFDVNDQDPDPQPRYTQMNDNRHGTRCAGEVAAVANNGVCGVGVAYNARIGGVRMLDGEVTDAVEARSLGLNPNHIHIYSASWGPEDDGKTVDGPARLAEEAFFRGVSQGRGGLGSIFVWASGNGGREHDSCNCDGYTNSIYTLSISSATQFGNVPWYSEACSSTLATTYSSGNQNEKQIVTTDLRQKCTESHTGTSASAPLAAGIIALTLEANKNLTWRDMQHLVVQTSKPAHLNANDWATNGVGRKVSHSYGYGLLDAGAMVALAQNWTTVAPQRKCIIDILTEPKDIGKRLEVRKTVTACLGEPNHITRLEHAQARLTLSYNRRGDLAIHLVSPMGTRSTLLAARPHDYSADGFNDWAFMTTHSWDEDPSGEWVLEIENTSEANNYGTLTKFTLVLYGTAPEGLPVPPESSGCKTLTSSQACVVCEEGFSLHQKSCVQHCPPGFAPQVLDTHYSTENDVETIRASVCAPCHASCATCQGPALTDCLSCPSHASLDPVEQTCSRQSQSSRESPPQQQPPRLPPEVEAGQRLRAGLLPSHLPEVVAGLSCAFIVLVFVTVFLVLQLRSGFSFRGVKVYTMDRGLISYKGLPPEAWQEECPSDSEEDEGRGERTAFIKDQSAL
# method: furin cleavage Z-score vs untreated control; higher = more cleavage, active = 3.5 or more, inactive = 1 or less, 8 variable residues between constant flanks
# experimentalContext: 30 min
This is one part of the list. The hit rate among all sequences tested is not known here.
Outcomes: 1.0 (active), 0.0 (inactive)

>  <sequenceData>
CADGGRPPRSAGNASASA [FS-1114]

>  <qualitativeLabel>
1.0

$$$$
>  <sequenceData>
CAHPKRAVREAGNASASA [FS-2864]

>  <qualitativeLabel>
1.0

$$$$
>  <sequenceData>
CAGKKRRPVKAGNASASA [DV1]

>  <qualitativeLabel>
0.0

$$$$
>  <sequenceData>
CAREKKAALEAGNASASA [FS-2656]

>  <qualitativeLabel>
0.0

$$$$
>  <sequenceData>
CAAKQRPPRSAGNASASA [FS-1301]

>  <qualitativeLabel>
1.0

$$$$
>  <sequenceData>
CAGKSRRKRQAGNASASA [FS-1328]

>  <qualitativeLabel>
1.0

$$$$
>  <sequenceData>
CAPGGGQIVGAGNASASA [HC173]

>  <qualitativeLabel>
0.0

$$$$
>  <sequenceData>
CALTERTKREAGNASASA [FS-1138]

>  <qualitativeLabel>
1.0

$$$$
>  <sequenceData>
CAQAGRSRKEAGNASASA [FS-950]

>  <qualitativeLabel>
0.0

$$$$
>  <sequenceData>
CAPRLRRKRQAGNASASA [FS-1243]

>  <qualitativeLabel>
1.0

$$$$
>  <sequenceData>
CAVPHPNIEEAGNASASA [HC839]

>  <qualitativeLabel>
0.0

$$$$
>  <sequenceData>
CAVSVRRKRQAGNASASA [FS-516]

>  <qualitativeLabel>
1.0

$$$$
